Assay: NCI Yeast Anticancer Drug Screen. Data for the wt2 strain (AID 169);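 further: 0% = growth of vehicle-treated yeast cultures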
Conditions: S. cerevisiae wt2 strain growth inhibition; at 11.0 µM
Experimental: Growth inhibition of yeast strains with defined genetic alterations is measured as a screen for potential anti-cancer activity. Selected strains with alterations in DNA damage repair or cell cycle control were exposed to compounds and growth inhibition was measured relative to vehicle treated controls. The strain used in this assay is wt2
The panel holds about 79,000 compounds, 15% with a hit somewhere; the sample as a whole holds those more often. Calls of active or inactive are those of the source. No stated cut-off is given here; in the data, active means growth inhibition above about 70%; inactive means the rest.
The categories you may choose from are 1 (yes) (active), 0 (no) (inactive)

Record excerpt, results attached:
[
  {
    "Compound": "O=[N+]([O-])c1ccc2nnnn2c1",
    "Assigned category": "0 (no)"
  },
  {
    "Compound": "CCCCCCCCCCCCOC1C(COCCN2CCCC2)OC2OC(C)(C)OC21 (configuration not stated)",
    "Assigned category": "1 (yes)"
  },
  {
    "Compound": "O=[N+]([O-])c1cccc2nc3ccccc3c(NCCC[N+]3([O-])CCOCC3)c12",
    "Assigned category": "0 (no)"
  },
  {
    "Compound": "O=C(Nn1c(-c2ccccc2)nc2ccccc2c1=O)c1ccc(Cl)cc1",
    "Assigned category": "0 (no)"
  }
]

Call for entry CCOC(=O)c1[nH]c2cccc3c2c1CC(Br)C3=O (configuration not stated) :
1 (yes)

Call for entry C[Si](C)(C)Cc1ccccc1C(=O)O :
0 (no)

Call for entry CC(C)OC(CCC#N)c1ccc(Cl)cc1 (configuration not stated) :
0 (no)

Call for entry O=C(CCCN1CCC2(CC1)OC(=O)N(c1ccccc1)C2=O)c1ccccc1 :
0 (no)

Call for entry O=C(c1c(F)c(F)c(F)c(F)c1F)c1c(F)c(F)c(F)c(F)c1F :
1 (yes)

Call for entry O=C1C(Br)=CC(Br)(Br)C=C1Br :
0 (no)

Call for entry Nc1ccc2ncc(Nc3ccc(Cl)c(Cl)c3)nc2c1 :
0 (no)

Call for entry CCCCCCCCCCCCCCCCCN :
0 (no)

---

experiment: NCI Yeast Anticancer Drug Screen. Data for the rad14 strain (AID 159);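 further: 0% = growth of vehicle-treated control cultures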; conditions: S. cerevisiae rad14 strain growth inhibition; at 1.2 µM; hits give high values
Compounds without any hit were thinned out: in the full panel of roughly 79,000, 15% have a hit.
Please respond with reported growth inhibition for every item in the list.
Give bare numbers, in %.

Solved entries (count: 5):
[
  {
    "Compound": "O=C1OC(/C=C/c2ccccc2)Sc2ccccc21 (centres undefined)",
    "Units of measure": "%",
    "growth inhibition": 1
  },
  {
    "Compound": "Cc1c(N=Nc2ccc(Cl)cc2)c(C)n(C2OC(CO)C(O)C(O)C2O)c(=S)c1C#N (centres undefined)",
    "Units of measure": "%",
    "growth inhibition": -2
  },
  {
    "Compound": "CN(C)/N=N/c1nc[nH]c1C(N)=O",
    "Units of measure": "%",
    "growth inhibition": -2
  },
  {
    "Compound": "Nc1nc(Nc2ccccc2)nc(Nc2ccccc2)n1",
    "Units of measure": "%",
    "growth inhibition": 5
  },
  {
    "Compound": "O=C(O)CN(CCNC(=O)OCC1c2ccccc2-c2ccccc21)CCNC(=O)OCC1c2ccccc2-c2ccccc21",
    "Units of measure": "%",
    "growth inhibition": 0
  }
]

Quick batch: growth inhibition for everything below.
1. COc1ccc(/C(=N/O)c2ccccc2C2=Nc3ccccc3C(NCc3ccccc3)O2)cc1C (centres undefined)
2. N#C/C(=C1C=C/C(=N\O)C(Cl)=C\1)c1ccccc1

1. 1
2. 2

---

experiment: NCI Yeast Anticancer Drug Screen. Data for the wt2 strain (AID 169);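 further: 0% = growth of vehicle-treated yeast cultures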; settings: S. cerevisiae wt2 strain growth inhibition; at 100.0 µM; hits give high values
The panel holds about 79,000 compounds, 15% with a hit somewhere; the sample as a whole holds those more often.
Please respond with reported growth inhibition for every item in the list.
One number for each entry, in %.

Solved entries (count: 5):
[
  {
    "Molecule": "COc1cc(C(C)C(C(=O)O)C(=O)C(=O)O)cc(OC)c1OC (stereo not drawn)",
    "growth inhibition (%)": 2
  },
  {
    "Molecule": "Nc1nc(Nc2ccccc2)nc(Nc2ccccc2)n1",
    "growth inhibition (%)": 96
  },
  {
    "Molecule": "C[n+]1c(-c2ccc(NC(=O)c3ccc(C(=O)Nc4ccc(-c5cn6ccccc6[n+]5C)cc4)cc3)cc2)cn2ccccc21",
    "growth inhibition (%)": 94
  },
  {
    "Molecule": "CCOC(=O)/C=C1\\CCCn2c1ncc(C(=O)OCC)c2=O",
    "growth inhibition (%)": 28
  },
  {
    "Molecule": "CCSc1c2ccccc2c(-c2nc(F)nc(F)n2)n1CCc1ccccc1",
    "growth inhibition (%)": 98
  }
]

Quick batch: growth inhibition for everything below.
1. Cc1nc2ccc(Br)cc2c(=O)n1-c1ccc(NC2OCC(O)C(O)C2O)cc1 (stereo not drawn)
2. BrC/C=C/C[P+](c1ccccc1)(c1ccccc1)c1ccccc1
3. O=c1[nH]c(=O)n(CCCO)cc1F
4. O=C(O)CN(CCNC(=O)OCC1c2ccccc2-c2ccccc21)CCNC(=O)OCC1c2ccccc2-c2ccccc21
5. CN(C)c1ccc(C(c2ccc(Cl)cc2)c2ccc(N(C)C)cc2)cc1
6. Cc1nc2ccccc2c(=O)n1NC(=O)c1ccc(CS)cc1

1. 86
2. 99
3. -18
4. 95
5. 85
6. 92

Quick batch: growth inhibition for everything below.
1. Cc1[nH]nc(C(F)(F)F)c1N=NN(C)C
2. CC1C=CN(N(C)C)C2=C1C(=O)c1cnccc1C2=O (stereo not drawn)
3. CN(C)N=Nc1ccc(NC=O)cc1
4. O=[N+]([O-])C(=C(NCc1ccccc1)NCc1ccccc1)C(Cl)=C(Cl)Cl
5. CC1=Cc2ccc(C)cc2C(=O)C1=O

1. 99
2. 96
3. 99
4. 70
5. 98

Quick batch: growth inhibition for everything below.
1. O=C(/C(=C/c1ccccc1)CBr)c1ccccc1
2. CSc1ccc2c(c1)C(N1CCN(C)CC1)Cc1ccccc1S2 (stereo not drawn)
3. COc1ccc2cc(CN3CCC(C4CCN(Cc5ccc6cc(OC)ccc6c5)CC4)CC3)ccc2c1
4. Cc1ccc(SSc2ccc(C)cc2[N+](=O)[O-])c([N+](=O)[O-])c1
5. Cc1cc(N(CCOS(C)(=O)=O)CCOS(C)(=O)=O)ccc1C=O
6. Cc1ccc(S(=O)(=O)N/N=C/c2c(O)ccc3ccccc23)cc1
7. O=c1[nH]cc(F)c(=O)[nH]1
8. C#CC1=CC(=O)C(OC)=CC1=O

1: 99; 2: 99; 3: 98; 4: 85; 5: 33; 6: 88; 7: 95; 8: 99

Quick batch: growth inhibition for everything below.
1. O=C(Cc1ccccc1F)NC1=C(Cl)C(=O)c2ccccc2C1=O
2. N=C(N)c1ccc(N=Nc2c(O)ccc3c2[nH]c2ccccc23)cc1

1. -4
2. 97

Quick batch: growth inhibition for everything below.
1. O=C1C=CC(=O)N1c1ccc(Br)cc1Cl
2. CCCC(=O)OC(OC(=O)CCC)c1ccc([N+](=O)[O-])o1

99
11

---

Please respond with reported growth inhibition for every item in the list.
experiment: NCI Yeast Anticancer Drug Screen. Data for the bub3 strain (AID 167); settings: S. cerevisiae bub3 mutant strain, at 11.0 µM, hits give high values
The panel holds about 79,000 compounds, 15% with a hit somewhere; the sample as a whole holds those more often. Starred links: 1 amine or outer side, 2 acyl side, 3 side chain; linkers in the order of their positions; H or OH if unused. Positions of bridges follow the written chain, without caps; N, C: chain ends. Non-standard residues stand in square brackets, D forms with d. Residues, ends and D or L forms follow the SMILES beside them. Chains are numbered I, II in the order given. Actinocin(9to1) = Cc1c2oc3c(C)ccc(C(=O)[*:1])c3nc-2c(C(=O)[*:2])c(N)c1=O; aThr = C[C@H](O)[C@H](N)C(=O)O; NMeV = CN[C@H](C(=O)O)C(C)C; Sar = CNCC(=O)O
Give bare numbers, in %.

Solved entries (count: 3):
[
  {
    "Compound": "COC(=O)C1(N2CCOCC2)CCC([C@@H](c2ccccc2)C(C)[N+](=O)[O-])C1 (stereo not given in full)",
    "Units of measure": "%",
    "Endpoint value": -8
  },
  {
    "Compound": "Cc1c2oc3c(C)ccc(C(=O)N[C@@H]4C(=O)N[C@H](C(C)C)C(=O)N5CCC[C@H]5C(=O)N(C)CC(=O)N(C)[C@@H](C(C)C)C(=O)O[C@H]4C)c3nc-2c(C(=O)N[C@@H]2C(=O)N[C@H](C(C)C)C(=O)N3CCC[C@H]3C(=O)N(C)CC(=O)N(C)[C@@H](C(C)C)C(=O)O[C@H]2C)c(N)c1=O (I: [aThr][dV]P[Sar][NMeV] / II: [aThr][dV]P[Sar][NMeV]; ester I:1-I:C, II:1-II:C; linker I:N-II:N via Actinocin(9to1))",
    "Units of measure": "%",
    "Endpoint value": 90
  },
  {
    "Compound": "O=C1C(Br)=CC(Br)(Br)C=C1Br",
    "Units of measure": "%",
    "Endpoint value": 7
  }
]

Quick batch: growth inhibition for everything below.
1. O=C1c2ccccc2-c2ccc(NC(=O)C3CCCCC3C(=O)O)cc21 (stereo not given)
2. Cc1ccc(S(=O)(=O)N/N=C/c2c(O)ccc3ccccc23)cc1

[72, 55]
